assay: folding enthalpy; higher = less favourable; fluorescence melt of hairpins on a sequencing array, two-state fit; details: sodium 0.088 M
Would you kindly list folding enthalpy for each of these sequences?
Numeric answer only, unit kcal/mol assumed.

Inquiry: Quick one: folding enthalpy for GTCAGGGGAAACCCTAAC ((.((((....)))).)) ?
Reply text: -14.5

Inquiry: Ok, now GGTAGGCGAAAGCCCACC (((.(((....))).)))
Reply text: -17.1

Inquiry: Ok, now GTCAACGGAAACATTGAC (((((.(....).)))))
Reply text: -26.4

Inquiry: Ok, now GATCTTCCCTAAGATC ((((((....))))))
Reply text: -31.1

Inquiry: Ok, now GATCCAAGATTGGATC ((((((....))))))
Reply text: -40

Inquiry: Ok, now GCAGGGCGAAAGCAGTGC (((..((....))..)))
Reply text: -18.3

Inquiry: Ok, now GGCTGCGAAAGCAGCGCC ((((((....)))..)))
Reply text: -5.65

Inquiry: Ok, now GCGAAATCTCGC ((((....))))
Reply text: -20.3

Inquiry: Ok, now GGGAAGTCGAAAGACCCC (((..(((....))))))
Reply text: -22.7

Inquiry: Ok, now GCGTCAGTACGC ((((....))))
Reply text: -20.1

Inquiry: Ok, now GTCTACGAAAGTATTGAC ((((((....)))..)))
Reply text: -19.5

Inquiry: Ok, now GCAAATGGAAACATTTAC (.(((((....))))).)
Reply text: -13.5

Inquiry: Ok, now GCACCGCGAAAGCGAAGC ((..(((....)))..))
Reply text: -11.7

Inquiry: Ok, now GGAATACGAAAGTACTCC (((.(((....))).)))
Reply text: -27.4

Inquiry: Ok, now GATCGTGTCACGATC ((((((...))))))
Reply text: -38.2

Inquiry: Ok, now GAACCGCGAAAGCGCTTC (((.(((....))).)))
Reply text: -10.6

---

experiment: folding enthalpy; higher = less favourable; fluorescence melt of hairpins on a sequencing array, two-state fit; conditions: sodium 0.088 M
Would you kindly list folding enthalpy for each of these sequences?
Numeric answer only, unit kcal/mol assumed.

Inquiry: Quick one: folding enthalpy for GCGTACGAAAGTATCGC ((((((....))).))) ?
Reply text: -39.6

Inquiry: Ok, now GCCGCAGGAAACTGTGGC (((.(((....))).)))
Reply text: -39.4

Inquiry: Ok, now GCGTAATAACGC ((((....))))
Reply text: -21.1

Inquiry: Ok, now GTGAAGGGAAACCTTCGC (.(((((....))))).)
Reply text: -25.8

Inquiry: Ok, now GCGGATACCCGC ((((....))))
Reply text: -24.3

Inquiry: Ok, now GTGTCCGAAAGGAACAC ((((((....))).)))
Reply text: -30

Inquiry: Ok, now GCAATGACGAAAGTCTGC (((..(((....))))))
Reply text: -19.4

---

assay: folding enthalpy; higher = less favourable; fluorescence melt of hairpins on a sequencing array, two-state fit; conditions: sodium 0.088 M
Would you kindly list folding enthalpy for each of these sequences?
Numeric answer only, unit kcal/mol assumed.

Inquiry: Quick one: folding enthalpy for GCGTTTTGACGC ((((....)))) ?
Reply text: -25.2

Inquiry: Ok, now GCAAGCGAAAGCTTGTGC ((((((....)))..)))
Reply text: -16.9

Inquiry: Ok, now GCTAGACGAAAGTCAAGC (((.(((....))).)))
Reply text: -30.4

Inquiry: Ok, now GTTTTGTCGAAAGACAAC (((..(((....))))))
Reply text: -12.8

Inquiry: Ok, now GCCGGGCCGAAAGGCGGC (((..(((....))))))
Reply text: -17.6

Inquiry: Ok, now GAGATGGGAAACTGTCTC ((((..(....)..))))
Reply text: -21.5

Inquiry: Ok, now GGGCATGCGAAAGCACCC (((..(((....))))))
Reply text: -18.6
